Where do these numbers come from? They come from PubChem BioAssay (NCATS).

Experiment: qHTS profiling of the MIPE4 collection as inhibitors of Plasmodium falciparum (DD2) proliferation (AID 743345)
Settings: P. falciparum Dd2 in erythrocytes, SYBR Green DNA, 72 h; at 28.5 µM (top of the series) unless noted
reported metric: parasite growth remaining, % of DMSO control (lower = more inhibition) (%)
One number for each entry, in %.

compound=CC(C)[C@H]1C(=O)N[C@H](CO)Cc2c[nH]c3cccc(c23)N1C value_measured=97.6
compound=CC[C@@H](C(N)=O)N1CCCC1=O value_measured=90.5
compound="CN1[C@H]2CC(O)C[C@H]1[C@H]1O[C@H]12 (stereo not given in full)" value_measured=12.2
compound=N#C[C@H](O[C@@H]1O[C@H](CO[C@@H]2O[C@H](CO)[C@H](O)[C@H](O)[C@H]2O)[C@H](O)[C@H](O)[C@H]1O)c1ccccc1 value_measured=17.6
compound=CCN1CCN(C(=O)Cc2ccc(Nc3ncc(F)c(Nc4ccc(C(=O)Nc5ccccc5Cl)cc4)n3)cc2)CC1 value_measured=7.02
compound=COc1cccc2c1[C@]13CCN(CC4CC4)[C@H](C2)[C@]1(OC)CCC(=O)C3 value_measured=102
compound="COc1ccc2c(c1)CN(C)CC2c1ccc(Cl)c(Cl)c1 (stereo not given)" value_measured=40.2
compound=CC(O)=C(C#N)C(=O)Nc1cc(Br)ccc1Br value_measured=97

Below is a list of compounds. For each, state its recorded parasite growth remaining, % of DMSO control (lower = more inhibition).
1. COC1=C[C@@H]2[C@@H]3Cc4ccc(OC)c(O)c4[C@]2(CCN3C)CC1=O
2. CC(=Cc1csc(C)n1)[C@@H]1C[C@H]2O[C@]2(C)CCC[C@H](C)[C@@H](O)[C@@H](C)C(=O)C(C)(C)[C@@H](O)CC(=O)O1

1: 84.4; 2: 15.7
